Tested on: Mycobacterium tuberculosis
Test: Antimycobacterial activity against Mycobacterium tuberculosis H37Rv ATCC 27294 after 4 days by microplate Alamar blue assay
Assay type: functional
Details: H37Rv ATCC 27294, 96 h
Let's look at some compounds and their measured MIC.
PROPERTY_MEASURED: MIC (µg/mL)

1. CCOC(=O)/C=C/C(=O)c1ccco1
1.09
2. CCOC(=O)/C=C/C(C)=O
3.51
3. CCCN(CCC)C(=O)/C=C/C(=O)c1ccc(-c2ccccc2)cc1
1.4
4. CCOC(=O)/C=C/C(=O)c1ccc2c(c1)CCO2
0.94

----------
Test system: Mycobacterium tuberculosis
Test: Antimycobacterial activity against Mycobacterium tuberculosis H37Rv ATCC 27294 after 4 days by microplate Alamar blue assay
Assay type: functional
Conditions: H37Rv ATCC 27294, 96 h
Item-by-item account of MIC
PROPERTY_MEASURED: MIC (µg/mL)

1. COC(=O)/C=C/C(=O)c1cccc2ccccc12
0.45
2. CC(C)OC(=O)/C=C/C(=O)c1cccc2ccccc12
0.69
3. COC(=O)/C=C/C(=O)c1ccccc1
0.86
4. CCN(C)C(=O)/C=C/C(=O)c1ccc(F)cc1
0.25
5. CCOC(=O)/C=C/C(=O)c1ccccc1OC
1.82
6. CCCN(CCC)C(=O)/C=C/C(=O)c1ccc(Cl)cc1
1.67

----------
System: Mycobacterium tuberculosis
Experiment: Antimycobacterial activity against Mycobacterium tuberculosis H37Rv ATCC 27294 after 4 days by microplate Alamar blue assay
Type: functional
Conditions: H37Rv ATCC 27294, 96 h
Classify: 1 when MIC is strictly less than 0.9 µg/mL; 0 when MIC is not.

1) CC(C)OC(=O)/C=C/C(=O)C1CC1
1
2) COC(=O)/C=C/C(=O)c1ccc(OC)cc1
1
3) CCOC(=O)/C=C/C(=O)c1ccccc1
1
4) CCOc1ccc(C(=O)/C=C/C(=O)OC)cc1
1
5) CCCN(CCC)C(=O)/C=C/C(=O)c1cccc(Cl)c1
0
6) COC(=O)/C=C/C(=O)c1ccccc1OC
0
7) COc1ccccc1C(=O)/C=C/C(=O)OC(C)C
0
8) CCOC(=O)/C=C/C(=O)c1ccc2c(c1)OCO2
1
9) CCN(C)C(=O)/C=C/C(=O)c1ccc2c(c1)OCO2
0
10) CC(C)(C)OC(=O)NCCOC(=O)/C=C/C(=O)c1ccc(Br)cc1
0
11) CC(C)(C)OC(=O)NCCOC(=O)/C=C/C(=O)c1ccc(OCc2ccccc2)cc1
0
12) CCN(C)C(=O)/C=C/C(=O)c1ccccc1OC
0
13) COc1ccc(C(=O)/C=C/C(=O)OC(C)C)cc1OC
0
14) COc1ccccc1C(=O)/C=C/C(=O)O
0
15) O=C(O)/C=C/C(=O)c1ccc2c(c1)CCO2
0
16) COC(=O)/C=C/C(=O)c1ccc(OCc2ccccc2)cc1
1
17) CN(C)C(=O)/C=C/C(=O)c1ccccc1Cl
1
18) COc1ccc(C(=O)/C=C/C(=O)OC(C)C)cc1
0
19) COC(=O)/C=C/C(=O)c1ccc2c(c1)CCO2
1
20) CCOC(=O)/C=C/C(=O)C1CCCCC1
0
21) O=C(O)/C=C/C(=O)c1ccc([N+](=O)[O-])cc1
0
22) CCCN(CCC)C(=O)/C=C/C(=O)c1cccc(Br)c1
0
23) O=C(O)/C=C/C(=O)c1ccc(-c2ccccc2)cc1
0

----------
Tested on: Mycobacterium tuberculosis
Assay: Antimycobacterial activity against Mycobacterium tuberculosis H37Rv ATCC 27294 after 4 days by microplate Alamar blue assay
Assay type: functional
Conditions: H37Rv ATCC 27294, 96 h
Entries and their measured MIC follow.
PROPERTY_MEASURED: MIC (mg/L)

1) CN(C)C(=O)/C=C/C(=O)c1ccc(-c2ccccc2)cc1
0.125
2) CCOC(=O)/C=C/C(=O)c1ccc(OC)cc1
0.46
3) CC(C)OC(=O)/C=C/C(=O)c1ccc2c(c1)CCO2
1.02
4) CCOC(=O)/C=C/C(=O)c1ccc(OCC)cc1
0.54
5) COC(=O)/C=C/C(=O)c1ccco1
0.52
6) CCOC(=O)/C=C/C(=O)c1ccc(OCc2ccccc2)cc1
0.96
7) CCCN(CCC)C(=O)/C=C/C(=O)c1ccc(F)cc1
0.95
8) CC(C)OC(=O)/C=C/C(=O)c1ccc(-c2ccccc2)cc1
0.24
9) CCOC(=O)/C=C/C(=O)c1ccc(Cl)cc1Cl
1.09

----------
Test system: Mycobacterium tuberculosis
Experiment: Antimycobacterial activity against Mycobacterium tuberculosis H37Rv ATCC 27294 after 4 days by microplate Alamar blue assay
Type: functional
Conditions: H37Rv ATCC 27294, 96 h
PROPERTY_MEASURED: MIC (µg/mL)

1. COC(=O)/C=C/C(=O)c1ccc(Oc2ccccc2)cc1
0.87
2. CN(C)C(=O)/C=C/C(=O)c1cccc(Br)c1
0.96
3. NNC(=O)c1ccncc1
0.025
4. CCOC(=O)/C=C/C(=O)c1ccc([N+](=O)[O-])cc1
0.48
5. CCN(C)C(=O)/C=C/C(=O)c1cccc(Br)c1
1.52

----------
Test system: Mycobacterium tuberculosis
Test: Antimycobacterial activity against Mycobacterium tuberculosis H37Rv ATCC 27294 after 4 days by microplate Alamar blue assay
Type: functional
Conditions: H37Rv ATCC 27294, 96 h
Could you please mark y for values of MIC below 0.5 µg/mL and n for values at or above it?

1) COC(=O)/C=C/C(=O)c1ccc(C)cc1
y
2) CCN(C)C(=O)/C=C/C(=O)c1ccccc1F
y
3) CN(C)C(=O)/C=C/C(=O)c1cccc(C(F)(F)F)c1
n
4) CN(C)C(=O)/C=C/C(=O)c1ccc(F)cc1
y
5) COC(=O)/C=C/C(=O)C1CCCCC1
n
6) CCOC(=O)/C=C/C(=O)c1ccc(-c2ccccc2)cc1
y
7) COC(=O)/C=C/C(=O)c1cc(OC)ccc1OC
n
8) CCN(C)C(=O)/C=C/C(=O)c1ccc([N+](=O)[O-])cc1
n
9) CC(C)(C)OC(=O)NCCOC(=O)/C=C/C(=O)c1ccc(-c2ccccc2)cc1
n
10) CCCN(CCC)C(=O)/C=C/C(=O)c1ccccc1OC
n
11) CN(C)C(=O)/C=C/C(=O)c1ccc(Cl)cc1
y

----------
System: Mycobacterium tuberculosis
Assay: Antimycobacterial activity against Mycobacterium tuberculosis H37Rv ATCC 27294 after 4 days by microplate Alamar blue assay
Type: functional
Conditions: H37Rv ATCC 27294, 96 h
PROPERTY_MEASURED: MIC

1. CC(C)(C)OC(=O)NCCOC(=O)/C=C/C(=O)c1ccc2c(c1)CCO2
> 4 µg/mL
2. COc1cccc(C(=O)/C=C/C(=O)N(C)C)c1
1.62 µg/mL
3. CC(C)OC(=O)/C=C/C(=O)c1ccc2c(c1)OCO2
0.87 µg/mL
4. COC(=O)/C=C/C(=O)c1cccc(OC)c1
0.39 µg/mL
5. COC(=O)/C=C/C(=O)c1ccc(OC)c(OC)c1
0.44 µg/mL
6. CCN(C)C(=O)/C=C/C(=O)c1cccc(Cl)c1
0.97 µg/mL
7. CCN(C)C(=O)/C=C/C(=O)c1cccc(F)c1
0.48 µg/mL
8. CCOC(=O)/C=C/C(=O)c1ccc(Br)cc1
0.52 µg/mL
9. CC(C)(C)OC(=O)NCCOC(=O)/C=C/C(=O)c1ccccc1
> 4 µg/mL
10. CCN(C)C(=O)/C=C/C(=O)c1ccc(Cl)cc1
0.24 µg/mL
11. CCN(C)C(=O)/C=C/C(=O)c1cccc(C(F)(F)F)c1
> 2 µg/mL
12. CC(C)OC(=O)/C=C/C(=O)c1ccco1
0.65 µg/mL

----------
Tested on: Mycobacterium tuberculosis
Experiment: Antimycobacterial activity against Mycobacterium tuberculosis H37Rv ATCC 27294 after 4 days by microplate Alamar blue assay
Assay type: functional
Settings: H37Rv ATCC 27294, 96 h
PROPERTY_MEASURED: MIC (µg/mL)

1. COC(=O)/C=C/C(C)=O
0.86
2. CCCN(CCC)C(=O)/C=C/C(=O)c1ccccc1[N+](=O)[O-]
1.24
3. CCOC(=O)/C=C/C(=O)c1ccc(Oc2ccccc2)cc1
1.52
4. CCOC(=O)/C=C/C(=O)c1cc(OC)ccc1OC
1.05
5. COC(=O)/C=C/C(=O)c1ccc(Cl)cc1Cl
1.85
6. CC(C)OC(=O)/C=C/C(=O)c1ccc(Oc2ccccc2)cc1
1.69
7. CC(C)OC(=O)/C=C/C(=O)c1ccccc1
0.78

----------
Tested on: Mycobacterium tuberculosis
Test: Antimycobacterial activity against Mycobacterium tuberculosis H37Rv ATCC 27294 after 4 days by microplate Alamar blue assay
Format: functional
Conditions: H37Rv ATCC 27294, 96 h
# key: entry, value: MIC
PROPERTY_MEASURED: MIC

1. O=C(O)/C=C/C(=O)c1cccc2ccccc12
> 4 µg/mL
2. COc1cccc(C(=O)/C=C/C(=O)O)c1
> 4 µg/mL
3. COc1ccc(OC)c(C(=O)/C=C/C(=O)OCCNC(=O)OC(C)(C)C)c1
> 4 µg/mL
4. CCCN(CCC)C(=O)/C=C/C(=O)c1ccc(Cl)cc1Cl
> 2 µg/mL
5. CC(C)(C)OC(=O)NCCOC(=O)/C=C/C(=O)c1ccc([N+](=O)[O-])cc1
> 4 µg/mL
